Hey, just so you know, these numbers are from ChEMBL document CHEMBL3046096.

Target: Histamine H1 receptor (Cavia porcellus)
Test: Antagonist activity at histamine H1 receptor in Cavia porcellus (guinea pig) ileum
Type: tissue-based
PARAMETER: Activity (µM/L)

{"COMPOUND": "O=C(CCN1CCN(Cc2ccccc2)CC1)Nc1ccccc1F", "MEASUREMENT UNITS": "µM/L", "RECORDED RESULT": 1.32}
{"COMPOUND": "O=C(CCN1CCN2Cc3[nH]c4ccccc4c3CC2C1)Nc1ccccc1F (stereo unspecified)", "MEASUREMENT UNITS": "µM/L", "RECORDED RESULT": 1.28}
{"COMPOUND": "O=C(NCCN1CCC(Cc2ccccc2)CC1)c1ccccc1", "MEASUREMENT UNITS": "µM/L", "RECORDED RESULT": 1.55}
{"COMPOUND": "Nc1ccccc1C(=O)NCCN1CCN2Cc3[nH]c4ccccc4c3CC2C1 (stereo unspecified)", "MEASUREMENT UNITS": "µM/L", "RECORDED RESULT": 0.925}
{"COMPOUND": "O=C(CCN1CCN(Cc2ccccc2)CC1)Nc1ccccc1", "MEASUREMENT UNITS": "µM/L", "RECORDED RESULT": 2.17}

1 = CN(C)[C@@H]1CO[C@@H](c2ccccc2)c2ccccc21 (relative stereo)
2 = COc1ccccc1NC(=O)CCN1CCC(Cc2ccccc2)CC1
3 = CN(C)C[C@@H]1O[C@H](c2ccccc2)c2ccccc21 (relative stereo)
4 = O=C(NCCN1CCN(Cc2ccccc2)CC1)c1ccccc1I
Arrange the 4 compounds by rising Activity, starting with the smallest. Returns: the labels listed in the requested order.
3, 4, 1, 2
(3: 0.0039 µM/L, 4: 0.345 µM/L, 1: 0.51 µM/L, 2: 0.963 µM/L)
